target: cloned rat H3 receptors (Rattus norvegicus); construct: expressed in transfected cells; experiment: H3 Receptor Binding (Rat); details: receptor stably expressed in SK-N-MC cells; free base or hydrochloride salt; average of results; read-out: Rat H3 Ki
Would you mind telling me the reported Ki of each entry?
One number for each entry, in nM.

A selection of reference data follows.
| substance smiles | unit abbreviation | Ki |
| --- | --- | --- |
| Cc1cccc(O[C@H]2C[C@H](C(=O)N3CCCN(C4CCC4)CC3)N(C(=O)OC(C)(C)C)C2)c1 | nM | 232 |
| O=C([C@H]1C[C@H](Oc2ccc(Cl)cc2)CN1)N1CCCN(C2CCC2)CC1 | nM | 18 |

Next, consider the following molecule.
Qu. Fill in Ki for record "CC(=O)N1C[C@@H](Oc2ccc(Cl)c(C)c2)C[C@@H]1C(=O)N1CCCN(C2CCC2)CC1"
Ans. 12

====

target: cloned rat H3 receptors (Rattus norvegicus, UniProt Q9QYN8); construct: expressed in transfected cells; experiment: H3 Receptor Binding (Rat)
Sequence (Q9QYN8 whole entry): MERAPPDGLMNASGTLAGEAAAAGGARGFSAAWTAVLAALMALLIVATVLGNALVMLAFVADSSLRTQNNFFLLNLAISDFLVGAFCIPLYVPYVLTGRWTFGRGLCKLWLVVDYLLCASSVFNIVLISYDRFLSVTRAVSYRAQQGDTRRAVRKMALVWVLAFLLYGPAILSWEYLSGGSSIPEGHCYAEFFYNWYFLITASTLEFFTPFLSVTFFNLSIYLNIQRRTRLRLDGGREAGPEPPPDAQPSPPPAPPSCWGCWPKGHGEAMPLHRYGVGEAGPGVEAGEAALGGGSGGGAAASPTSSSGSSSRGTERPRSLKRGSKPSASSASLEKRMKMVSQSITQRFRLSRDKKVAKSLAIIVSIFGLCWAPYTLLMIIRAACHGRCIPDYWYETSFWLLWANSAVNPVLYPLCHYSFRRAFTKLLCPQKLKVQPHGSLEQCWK
Would you mind telling me the reported pKi of each entry?
Answers are plain numbers, as −log10 of the molar value.

A selection of reference data follows.
| substance smiles | pKi |
| --- | --- |
| CSc1ccc(O[C@H]2CN[C@H](C(=O)N3CCCN(C4CCC4)CC3)C2)cc1 | 7.08 |
| N#Cc1ccc(O[C@@H]2CN[C@@H](C(=O)N3CCCN(C4CCC4)CC3)C2)cc1 | 6.33 |
| N#Cc1ccc(O[C@@H]2CN[C@@H](C(=O)N3CCCN(C4CCCC4)CC3)C2)cc1 | 7.80 |
| O=C([C@H]1C[C@H](Oc2cccc(F)c2)CN1)N1CCCN(C2CCC2)CC1 | 7.92 |
| CC(=O)N1C[C@@H](Oc2cccc(F)c2)C[C@@H]1C(=O)N1CCCN(C2CCC2)CC1 | 7.77 |
| CN1C[C@@H](Oc2ccc(F)cc2)C[C@@H]1C(=O)N1CCCN(C2CCC2)CC1 | 6.32 |

Provide the reported pKi of each entry below, same order.
1. N#Cc1ccc(O[C@H]2CN[C@H](C(=O)N3CCCN(C4CCC4)CC3)C2)cc1
2. CSc1ccc(O[C@@H]2CN[C@@H](C(=O)N3CCCN(C4CCC4)CC3)C2)cc1

Ans.
[6.82, 7.27]

====

molecular target: human H3 receptor (Homo sapiens, UniProt Q9Y5N1); assay: H3 Receptor Binding (Human) Method 2, [125I]-iodoproxyfan competitive radioligand binding; design: expressed in transfected cells; conditions: read-out: Human H3 Ki
Sequence (Q9Y5N1 whole entry): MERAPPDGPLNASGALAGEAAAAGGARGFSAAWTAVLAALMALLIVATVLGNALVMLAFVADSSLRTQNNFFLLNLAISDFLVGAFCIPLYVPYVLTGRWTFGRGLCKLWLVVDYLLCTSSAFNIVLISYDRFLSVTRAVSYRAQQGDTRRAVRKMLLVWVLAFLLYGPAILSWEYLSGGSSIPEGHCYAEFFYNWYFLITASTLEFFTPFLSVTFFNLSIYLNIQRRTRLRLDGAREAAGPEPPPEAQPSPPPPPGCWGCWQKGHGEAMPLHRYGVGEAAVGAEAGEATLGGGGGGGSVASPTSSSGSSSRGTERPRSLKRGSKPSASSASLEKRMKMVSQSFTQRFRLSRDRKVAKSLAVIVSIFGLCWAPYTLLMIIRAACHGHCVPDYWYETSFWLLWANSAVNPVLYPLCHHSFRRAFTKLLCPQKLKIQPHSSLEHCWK
Would you mind telling me the reported log10(Ki) of each entry?
Values reflect log10 of reported Ki (nM).

| substance smiles | measured number |
| --- | --- |
| Cc1cccc(O[C@H]2C[C@H](C(=O)N3CCCN(C4CCC4)CC3)N(C(=O)OC(C)(C)C)C2)c1 | 0.70 |
| CC(C)(C)OC(=O)N1C[C@H](Oc2ccccc2)C[C@@H]1C(=O)N1CCCN(C2CCC2)CC1 | 2.32 |

Provide the reported log10(Ki) of each entry below, same order.
1. CC(C)(C)OC(=O)N1C[C@@H](Oc2ccc(S(C)(=O)=O)cc2)C[C@@H]1C(=O)N1CCCN(C2CCC2)CC1
2. CC(C)(C)OC(=O)N1C[C@@H](OCc2ccc(C#N)cc2)C[C@@H]1C(=O)N1CCCN(C2CCC2)CC1
3. CC(=O)N1C[C@H](Cc2ccsc2)C[C@H]1C(=O)N1CCCN(C2CCC2)CC1
4. CC(C)(C)OC(=O)N1C[C@H](Cc2ccsc2)C[C@H]1C(=O)N1CCCN(C2CCC2)CC1

Ans.
0.70
1.11
2.31
1.30

Provide the reported log10(Ki) of each entry below, same order.
1. O=C([C@H]1C[C@H](Oc2ccc(F)cc2)CN1C1CCC1)N1CCCN(C2CCC2)CC1
2. CC(C)(C)OC(=O)N1CCC[C@]1(Cc1ccccc1)C(=O)N1CCCN(C2CCC2)CC1
3. Cc1cccc(O[C@@H]2CN[C@@H](C(=O)N3CCCN(C4CCC4)CC3)C2)c1
4. CC(C)(C)OC(=O)N1C[C@H](O)C[C@@H]1C(=O)N1CCCN(C2CCC2)CC1
5. CC(C)(C)OC(=O)N1C[C@@H](Oc2ccc(Cl)cc2)C[C@@H]1C(=O)N1CCCN(C2CCC2)CC1
6. CC(=O)N1C[C@@H](Oc2cccnc2)C[C@@H]1C(=O)N1CCCN(C2CCC2)CC1

Ans.
1: 1.23; 2: 1.71; 3: 0.70; 4: 2.73; 5: 0.48; 6: 0.48

Provide the reported log10(Ki) of each entry below, same order.
1. CC(C)(C)OC(=O)N1C[C@@H](Oc2ccc(C#N)cc2)C[C@@H]1C(=O)N1CCN(C2CCCC2)CC1
2. CSc1ccc(O[C@@H]2CCN(C(=O)OC(C)(C)C)[C@@H]2C(=O)N2CCCN(C3CCC3)CC2)cc1
3. CC(=O)N1C[C@@H](Oc2ccc3c(c2)OCCO3)C[C@@H]1C(=O)N1CCCN(C2CCC2)CC1

Ans.
1: 1.15; 2: 3.17; 3: 0.30
